# study.system: GST-PDZ1+2+3 fusion protein of hDlg (human, UniProt Q12959 201-584)
# Sequence (Q12959 201-584): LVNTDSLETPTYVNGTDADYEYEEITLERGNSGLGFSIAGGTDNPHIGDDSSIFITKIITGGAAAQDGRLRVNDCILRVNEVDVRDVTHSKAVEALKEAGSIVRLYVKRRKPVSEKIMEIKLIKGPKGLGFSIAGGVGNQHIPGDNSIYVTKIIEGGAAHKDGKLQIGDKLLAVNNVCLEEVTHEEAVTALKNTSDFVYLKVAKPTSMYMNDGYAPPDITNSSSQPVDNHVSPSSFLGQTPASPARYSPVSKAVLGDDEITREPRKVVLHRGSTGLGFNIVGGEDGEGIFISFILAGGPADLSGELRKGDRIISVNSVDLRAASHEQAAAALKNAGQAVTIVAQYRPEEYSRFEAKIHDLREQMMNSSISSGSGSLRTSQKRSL
# assay.info: SPR
Where no end group is shown, it is not given here. The star is where a group is joined. Biotin = O=C1N[C@H]2[C@H](CS[C@H]2CCCCC(=O)*)N1
endpoint: Kd

[in] Give recorded Kd. Biotin-SGSGDKNNCSNAKAVETDV [biotinylated synthetic peptide of the COOH terminus of the Kv1.4 potassium channel]
[out] 11 nM
